system: Escherichia coli TOP10; test: shrunken log2 fold change of peptide-encoding DNA abundance (4.5 h post-induction vs induction); higher = less antimicrobial activity (less host growth inhibition); settings: time post-induction: 4.5 h; library: site-saturation at positions 5, 18, 19, 20;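 further: peptides expressed intracellularly from a pBAD plasmid library in pooled LB shake-flask culture, induced with 0.3% L-arabinose, DNA abundance read by NGS, three biological replicates, DESeq2 with apeglm shrinkage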
The threshold is inclusive: shrunken log2 fold change of exactly 0.04 counts as True; values below receive False.

Does RRIRMRPPRLPRPRPRPTPTPRP have a reported shrunken log2 fold change of at least 0.04? True

Does RRIRQRPPRLPRPRPRPRVIPRP have a reported shrunken log2 fold change of at least 0.04? True

Does RRIRTRPPRLPRPRPRPGESPRP have a reported shrunken log2 fold change of at least 0.04? False

Does RRIRTRPPRLPRPRPRPYCDPRP have a reported shrunken log2 fold change of at least 0.04? False

Does RRIRQRPPRLPRPRPRPMADPRP have a reported shrunken log2 fold change of at least 0.04? True

Does RRIRVRPPRLPRPRPRPWCAPRP have a reported shrunken log2 fold change of at least 0.04? False

Does RRIRERPPRLPRPRPRPNTEPRP have a reported shrunken log2 fold change of at least 0.04? True

Does RRIRIRPPRLPRPRPRPDLIPRP have a reported shrunken log2 fold change of at least 0.04? False

Does RRIRWRPPRLPRPRPRPIALPRP have a reported shrunken log2 fold change of at least 0.04? False

Does RRIRDRPPRLPRPRPRPMEDPRP have a reported shrunken log2 fold change of at least 0.04? False

Does RRIRHRPPRLPRPRPRPKAQPRP have a reported shrunken log2 fold change of at least 0.04? False

Does RRIRGRPPRLPRPRPRPRAHPRP have a reported shrunken log2 fold change of at least 0.04? True

Does RRIRFRPPRLPRPRPRPYDCPRP have a reported shrunken log2 fold change of at least 0.04? False

Does RRIRNRPPRLPRPRPRPKFHPRP have a reported shrunken log2 fold change of at least 0.04? False

Does RRIRARPPRLPRPRPRPRDPPRP have a reported shrunken log2 fold change of at least 0.04? True

Does RRIRERPPRLPRPRPRPAMGPRP have a reported shrunken log2 fold change of at least 0.04? False

Does RRIRKRPPRLPRPRPRPKLPPRP have a reported shrunken log2 fold change of at least 0.04? True

Does RRIRIRPPRLPRPRPRPQMSPRP have a reported shrunken log2 fold change of at least 0.04? False

Does RRIRKRPPRLPRPRPRPNDTPRP have a reported shrunken log2 fold change of at least 0.04? False

Does RRIRQRPPRLPRPRPRPLCLPRP have a reported shrunken log2 fold change of at least 0.04? False

Does RRIRCRPPRLPRPRPRPLWHPRP have a reported shrunken log2 fold change of at least 0.04? False

Does RRIRGRPPRLPRPRPRPWQDPRP have a reported shrunken log2 fold change of at least 0.04? False

Does RRIRRRPPRLPRPRPRPAQKPRP have a reported shrunken log2 fold change of at least 0.04? True

Does RRIRMRPPRLPRPRPRPFMYPRP have a reported shrunken log2 fold change of at least 0.04? False

Does RRIRGRPPRLPRPRPRPKGTPRP have a reported shrunken log2 fold change of at least 0.04? True

Does RRIRVRPPRLPRPRPRPWNTPRP have a reported shrunken log2 fold change of at least 0.04? False

Does RRIRPRPPRLPRPRPRPSWVPRP have a reported shrunken log2 fold change of at least 0.04? True

Does RRIRCRPPRLPRPRPRPRDNPRP have a reported shrunken log2 fold change of at least 0.04? True

Does RRIRFRPPRLPRPRPRPFRCPRP have a reported shrunken log2 fold change of at least 0.04? False

Does RRIRHRPPRLPRPRPRPDGTPRP have a reported shrunken log2 fold change of at least 0.04? False

Does RRIRRRPPRLPRPRPRPKLSPRP have a reported shrunken log2 fold change of at least 0.04? True

Does RRIRWRPPRLPRPRPRPARKPRP have a reported shrunken log2 fold change of at least 0.04? False

Does RRIRGRPPRLPRPRPRPRCQPRP have a reported shrunken log2 fold change of at least 0.04? True

Does RRIRDRPPRLPRPRPRPGAIPRP have a reported shrunken log2 fold change of at least 0.04? True

Does RRIRYRPPRLPRPRPRPFTVPRP have a reported shrunken log2 fold change of at least 0.04? False

Does RRIRSRPPRLPRPRPRPSDWPRP have a reported shrunken log2 fold change of at least 0.04? False

Does RRIRNRPPRLPRPRPRPPFFPRP have a reported shrunken log2 fold change of at least 0.04? True

Does RRIRLRPPRLPRPRPRPQQFPRP have a reported shrunken log2 fold change of at least 0.04? False

Does RRIRQRPPRLPRPRPRPNECPRP have a reported shrunken log2 fold change of at least 0.04? False

Does RRIRHRPPRLPRPRPRPINDPRP have a reported shrunken log2 fold change of at least 0.04? False

Does RRIRSRPPRLPRPRPRPEYIPRP have a reported shrunken log2 fold change of at least 0.04? False

Does RRIRVRPPRLPRPRPRPPSDPRP have a reported shrunken log2 fold change of at least 0.04? True

Does RRIRDRPPRLPRPRPRPILNPRP have a reported shrunken log2 fold change of at least 0.04? False

Does RRIRNRPPRLPRPRPRPYNSPRP have a reported shrunken log2 fold change of at least 0.04? False

Does RRIRHRPPRLPRPRPRPVVDPRP have a reported shrunken log2 fold change of at least 0.04? False

Does RRIRTRPPRLPRPRPRPLNVPRP have a reported shrunken log2 fold change of at least 0.04? False

Does RRIRIRPPRLPRPRPRPQMMPRP have a reported shrunken log2 fold change of at least 0.04? False

Does RRIRHRPPRLPRPRPRPLLRPRP have a reported shrunken log2 fold change of at least 0.04? True

Does RRIRDRPPRLPRPRPRPREIPRP have a reported shrunken log2 fold change of at least 0.04? False

Does RRIRRRPPRLPRPRPRPKSDPRP have a reported shrunken log2 fold change of at least 0.04? True

Does RRIRSRPPRLPRPRPRPSYGPRP have a reported shrunken log2 fold change of at least 0.04? False

Does RRIRCRPPRLPRPRPRPHRWPRP have a reported shrunken log2 fold change of at least 0.04? True

Does RRIRFRPPRLPRPRPRPISYPRP have a reported shrunken log2 fold change of at least 0.04? False

Does RRIRIRPPRLPRPRPRPLYWPRP have a reported shrunken log2 fold change of at least 0.04? False

Does RRIRIRPPRLPRPRPRPARLPRP have a reported shrunken log2 fold change of at least 0.04? False

Does RRIRRRPPRLPRPRPRPYSQPRP have a reported shrunken log2 fold change of at least 0.04? False

Does RRIRSRPPRLPRPRPRPTLRPRP have a reported shrunken log2 fold change of at least 0.04? False

Does RRIRERPPRLPRPRPRPVMNPRP have a reported shrunken log2 fold change of at least 0.04? False

Does RRIRKRPPRLPRPRPRPDRAPRP have a reported shrunken log2 fold change of at least 0.04? True

Does RRIRRRPPRLPRPRPRPRQLPRP have a reported shrunken log2 fold change of at least 0.04? True

Does RRIRTRPPRLPRPRPRPMIWPRP have a reported shrunken log2 fold change of at least 0.04? False

Does RRIRERPPRLPRPRPRPMNSPRP have a reported shrunken log2 fold change of at least 0.04? False

Does RRIRGRPPRLPRPRPRPNYRPRP have a reported shrunken log2 fold change of at least 0.04? False
